# tgt: human recombinant kinase full-length AKT1 E17K (Homo sapiens, UniProt P31749, E17K)
# Construct: Purified human recombinant kinase full-length AKT1 E17K was expressed in insect cells
# Sequence (P31749 whole entry E17K): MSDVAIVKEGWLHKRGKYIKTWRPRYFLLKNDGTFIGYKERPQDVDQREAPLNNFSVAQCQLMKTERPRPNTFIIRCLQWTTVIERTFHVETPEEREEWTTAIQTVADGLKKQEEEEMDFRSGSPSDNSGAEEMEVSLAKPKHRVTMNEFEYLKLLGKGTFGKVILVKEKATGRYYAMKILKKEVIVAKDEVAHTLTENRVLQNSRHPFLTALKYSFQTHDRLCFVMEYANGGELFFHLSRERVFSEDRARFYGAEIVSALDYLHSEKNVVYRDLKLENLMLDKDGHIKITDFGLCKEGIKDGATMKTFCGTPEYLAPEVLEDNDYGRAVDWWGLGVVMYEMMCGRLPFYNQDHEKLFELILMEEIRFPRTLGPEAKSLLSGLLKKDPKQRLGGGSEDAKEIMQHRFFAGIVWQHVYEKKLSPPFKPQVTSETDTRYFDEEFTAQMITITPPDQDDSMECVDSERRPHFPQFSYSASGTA
# assay explanation: AKT1 E17K kinase assay (TR-FRET, Lance)
# details: 0.6 nM AKT1 E17K, 50 nM Ulight-CREBtide, either 50 μM ATP or 2 mM ATP, 60 min at RT
recorded metric: IC50

Q. Lab note: need IC50 with human recombinant kinase full-length AKT1 E17K (Homo sapiens, UniProt P31749, E17K) for entry Cc1cc(C2(C)CN(CC3CC4(C3)CC(C(=O)O)C4)C2)ccc1-n1c(-c2cccnc2N)nc2ccc(-c3ccccc3)nc21 (stereo not shown) [Compound I-157] , please look it up.
A. 500 to 2000 nM

Q. Proceed to Nc1ncccc1-c1nc2ccc(-c3ccccc3)nc2n1-c1ccc([C@@H]2CCN(C[C@H]3CC[C@H](C(=O)O)CC3)C2)cc1 (single isomer, unassigned) [Compound I-233]
A. < 500 nM

Q. Same for Nc1ncccc1-c1nc2ccc(-n3cccn3)nc2n1-c1ccc(NC(=O)[C@H]2CC[C@H](C(=O)O)CC2)nc1 [Compound I-41]
A. < 500 nM
